Target entity: T1, EphA2 ligand binding domain (EphA2 LBD), residues 28-200 (UniProt P29317 28-200)
T1 construct: range 28-200; Expressed in E. coli; also called soluble EphA2 LBD; soluble monomeric EphA2 LBD
T1 sequence (P29317 other isoform, or with tags, fused parts or gaps limits assumed, form in doubt): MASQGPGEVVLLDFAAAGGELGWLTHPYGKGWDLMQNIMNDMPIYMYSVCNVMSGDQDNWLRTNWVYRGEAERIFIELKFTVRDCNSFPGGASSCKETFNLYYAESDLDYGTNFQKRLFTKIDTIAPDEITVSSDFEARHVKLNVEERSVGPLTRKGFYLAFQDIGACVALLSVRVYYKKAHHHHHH
Test method notes: ITC, soluble EphA2 LBD and peptide
Where no end group is shown, it is not given here. [ ]: non-standard residue; d: D form. The star is where a group is joined. Biotin = O=C1N[C@H]2[C@H](CS[C@H]2CCCCC(=O)*)N1; βAla = NCCC(=O)O; Cam = NC(=O)C*
We begin with a simple list: items and their reported -TΔS.
Quantity: -TΔS (kcal/mol)

• C(Cam)GAWLAYPDSVPYRPK(Biotin) (also called monomer (10); monomeric peptide (10)) [CcamGA-WLA-YRPK-bio] = 25.5
• [βAla]WLAYPDSVPYRPKC (also: homodimer, disulfide at 15, other end not in the chain, C-terminally disulfide-linked homodimer made from monomer (19*); also called dimer (2); dimeric peptide (2)) [βA-WLA-YRPKC dimer (C-ter)] = 19.5
• CGAWLAYPDSVPYR (also: homodimer: N-terminal Cys of two chains joined by disulfide, N-terminally disulfide-linked homodimer made from monomer (15*); also called dimer (4)) [CGA-WLA-YR dimer (N-ter)] = 23.6
• [βAla]WLAYPDSVPYGSGC (also: homodimer, disulfide at 15, other end not in the chain, C-terminally disulfide-linked homodimer made from monomer (9*); also called dimer (1); dimeric peptide (1)) [βA-WLA-YGSGC dimer (C-ter)] = 16.3
• CGAWLAYPDSVPYRPK (also: N-terminally disulfide-linked homodimer, disulfide at 1, other end not in the chain, also called dimer (5); dimeric peptide (5)) [CGA-WLA-YRPK dimer (N-ter)] = 21.9
